Molecular target: T1, canine OX40L, full length membrane form, expressed on HEK293 cells (canine)
T1 chain: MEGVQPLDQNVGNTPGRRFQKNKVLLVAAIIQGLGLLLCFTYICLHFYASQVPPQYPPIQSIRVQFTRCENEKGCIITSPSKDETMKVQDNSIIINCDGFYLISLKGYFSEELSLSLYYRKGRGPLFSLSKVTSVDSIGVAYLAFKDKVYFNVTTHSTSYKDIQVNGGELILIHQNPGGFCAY
Test: cell-based or functional assay
For each of the binders below, state its % Signal Inhibition Rep3.
Numbers only, in %.

Binder: PMX035 (antibody, V domains shown, also called PMX35) VH: EVQLVESGGDLVKPGGSLRLSCVASGFTFSNFEMYWVRQAPGKGLEWVARIYKSGSTTYHSERVKGRFTISKDSATNMAFLQMNSLRAEDTAVYYCTSASSTGWRFDYWGQGTLVTVSS VL: SYVLTQLPSVSVTLRQTARITCGGDSIGRKNVCWFQQKLGQAPVLIIYDDNSRPSGIPERFSGANSGNTATLTISGALAEDEADYYCQVWDSSTGIFGGGTHLTVL
% Signal Inhibition Rep3 [%]: 67.8

Binder: PMX098 (antibody, V domains shown) VH: EVQLVESGGDLVKPGGSLRLSCVASGFTFNTYHMNWVRQAPGKGLHWVAFINSGGSGTSYADTVKGRFTISRDYAKNTLYLQMNSLRAEDTAVYYCASGSIWTHFDYWGQGTLVTVSS VL: SYVLTQLPSVSLTLRQTAHITCGGDIIGSKSVYWYQQKLGQAPVLIIYRDNNRPTGIPERFSGASSGNTATLTISGALAEDEADYYCQVWDSSTQAMFGGGTHLTVL
% Signal Inhibition Rep3 [%]: 39.8

Now for the binder whose % Signal Inhibition Rep3 we want.
Retrieve % Signal Inhibition Rep3 measured for PMX097 (antibody, V domains shown, also called PMX97) VH: EVQLVESGGDLVRPGGSLRLSCVASGITFSSYHMSWVRQAPGKGLQWVALINSGGSSITYADVVRGRFTISRDYAKNTLYLQMNSLRAEDTAVYYCASGSIWTHFDYWGQGTRVTVSS VL: SFVLTQLPSVSVTLRQTARITCGGDIIGSKNVYWYQQRLGQAPVLIIYRDSNRPTGIPERFSGASSGNTATLTISGALAEDEADYYCQVWDNSNKAMFGGGTHLTVL and print it. 53.2
